Provide the recorded pIC50 for the entries that follow.
measurementDescription: Cytotoxicity against human Hey/Ixab80 cells after 72 to 120 hrs by sulforhodamine B assay
Type: functional, cell-based
// scale note: pIC50 = -log10(conc_M); give the bare number

Bench note: what pIC50 did CC(=O)O[C@@]12CO[C@@H]1C[C@H](O)[C@@]1(C)C(=O)[C@H](O)C3=C(C)[C@@H](OC(=O)[C@H](O)[C@@H](NC(=O)OC(C)(C)C)c4ccccc4)C[C@@](O)([C@@H](OC(=O)c4ccccc4)[C@H]21)C3(C)C [DOCETAXEL ANHYDROUS] show?
4.79

What value of pIC50 has been recorded for this entry: CC(=O)O[C@H]1C(=O)[C@@]2(C)[C@H]([C@H](OC(=O)c3ccccc3)[C@]3(O)C[C@H](OC(=O)[C@H](O)[C@@H](NC(=O)c4ccccc4)c4ccccc4)C(C)=C1C3(C)C)[C@]1(OC(C)=O)CO[C@@H]1C[C@@H]2O
3.82

Can you look up the measured pIC50 of CC(=O)O[C@@]1(C2/C(C)=C(/O)C(=O)C3=C(C)[C@@H](OC(=O)[C@H](O)[C@H](C=C(C)C)NC(=O)OC(C)(C)C)C[C@@](O)([C@H]2OC(=O)c2cccc(Cl)c2)C3(C)C)CO[C@H]1CCO (some centres undefined) for me?
4.89

Item CC(=O)O[C@@]12CO[C@@H]1C[C@H](O)[C@@]1(C)C(=O)[C@H](OC(=O)C3CC3)C3=C(C)[C@@H](OC(=O)[C@H](O)[C@H](C=C(C)C)NC(=O)OC(C)(C)C)C[C@@](O)([C@@H](OC(=O)c4ccccc4)[C@H]21)C3(C)C has what recorded pIC50?
5.80
